# Tested on: LOX IMVI melanoma
# TEST DETAILS: NCI tumour cell line growth inhibition, 48 h
Here, each record is paired with measured GI50 data.
OBSERVATION TYPE: GI50

# COMPOUND, VALUE MEASURED
measured = [
    ("NCCCN=c1ccc2c3c1c(O)c1c(O)ccc(=O)c1c3[nH]n2CCNCCO", "1.53 µM"),
    ("N#Cc1cc(S(=O)(=O)Nc2nc3cc(Cl)ccc3o2)c(SCc2ccccc2)cc1Cl", "13.5 µM"),
    ("COc1ccc(C2NC(=S)NC3=C2CCOc2c3ccc3ccccc23)cc1 (stereo not given)", "> 100 µM"),
    ("CCOc1ccc2cc(-c3nn(CC4CCNCC4)c4ncnc(N)c34)ccc2c1", "26.8 µM"),
    ("COc1cc(NC2CCCCC2O)c2nc(-c3ccc(Cl)cc3)ccc2c1 (stereo not given)", "5.95 µM"),
]

###

# System: CAKI-1 renal
# TEST DETAILS: NCI tumour cell line growth inhibition, 48 h; in the data active = GI50 below about 0.43 µM; inactive = the rest
Outcomes: yes = active, no = inactive

# COMPOUND, LABEL
rows = [
    ("N#[N+]c1ccc(Nc2ccccc2)cc1", "no"),
    ("COc1cc2cc(Oc3cccc(NC(=O)Nc4cc(C(F)(F)F)cc(C(F)(F)F)c4)c3)c(C)nc2cc1OC", "no"),
    ("CCCCCC[C@H]1C(=O)O[C@H](C)[C@H](NC(=O)c2cccc(NC=O)c2OC)C(=O)O[C@@H](C)[C@@H]1OC(=O)CCC (tested in a mixture with another compound)", "no"),
    ("CCOC1Oc2ccc(C)cc2C(=O)/C1=C\\Nc1ccc(S(N)(=O)=O)cc1 (stereo unspecified)", "no"),
    ("COc1ccc(-c2c(N)noc2-c2cc(OC)c3c(c2)OCCO3)cc1", "yes"),
    ("COc1ccc(-c2csc(Nc3cccc(-c4csc(C)n4)c3)n2)cc1", "no"),
    ("Cn1cnnc1[S-].[Au+].c1ccc([PH+](c2ccccc2)c2ccccc2)cc1", "no"),
    ("Nn1c(-c2ccc(Cl)cc2)nc2c(-c3ccc(Cl)cc3)nc3ccc(Cl)cc3c2c1=O", "no"),
    ("CCc1ccc2c(c1)N(CCO)C1=C(C(=O)OC1)C2c1cc(OC)c(OC)c(OC)c1 (stereo unspecified)", "no"),
    ("C=CC(=O)Nc1cc2c(Nc3ccc(F)c(Cl)c3)ncnc2cc1C#CC(C)(C)N1CCN(C)CC1", "no"),
    ("CCn1c(-c2nonc2N)nc2cnc(Oc3cccc(NC(=O)c4ccc(N(C)C)cc4)c3)cc21", "no"),
    ("CSC1=Nc2c(c(C)c(-c3ccccc3)n2COC(CO)CO)C2=NC(=O)CC(C)N12 (stereo unspecified)", "no"),
    ("CCOC(=O)c1c(NC(=O)c2ccc(Cl)cc2)sc2c(CN(C)C)c(O)ccc12", "no"),
    ("COc1ccc(C(O)c2cc3c(N)c(C(=O)Nc4cccc(Br)c4C)sc3nc2C)cc1 (stereo unspecified)", "yes"),
    ("COc1ccc(C2NC(=S)NC3=C2CCOc2c3ccc3ccccc23)cc1 (stereo unspecified)", "no"),
    ("O=CN1N=C(c2cccc(Nc3ccnc4cc(Cl)ccc34)c2)CC1c1ccc(Cl)cc1 (stereo unspecified)", "no"),
]

###

# System: SW-620 colon
# TEST DETAILS: NCI tumour cell line growth inhibition, 48 h
Where a SMILES comes first, the peptide text is derived from it. The star is where a group is joined. Boc = CC(C)(C)OC(=O)*; nBu = CCCC*

# COMPOUND, TGI
data = [
    ("Cc1ccc2ccc(-c3ccccc3)c3c2c1C(=O)c1ccccc1C3=O", "> 100 µM"),
    ("C=CCN1CCC(c2cc(C(=O)OCC)[nH]c2-c2cc(C)no2)C1=O (stereo not given)", "> 100 µM"),
    ("CCCCOc1ccc(CC(NC(=O)OC(C)(C)C)C(=O)NC(C)C(=O)NC(Cc2ccccc2)C(=O)NCC(N)=O)cc1 (stereo not given) (Boc-Y(nBu)AFG-NH2; configuration not given here)", "> 100 µM"),
    ("CN1CCC(C(O)(c2ccccc2)c2ccc(Br)cc2)CC1 (stereo not given)", "61.1 µM"),
    ("C=C1C(O)C2(O)OCC34C(CC5C(C)=CC(=O)C(O)C5(C)C23)OC(=O)C(OC(=O)C/C=C/CCCCCCCC)C14 (stereo not given)", "0.0471 µM"),
    ("Cc1ccc(S(=O)(=O)N2CCSCCSCCSCCN(S(=O)(=O)c3ccc(C)cc3)CC2)cc1", "> 100 µM"),
    ("COc1cccc(/C=N\\NC(=O)C(C)SC(C)C(=O)N/N=C/c2cccc(OC)c2)c1 (stereo not given)", "> 100 µM"),
    ("CC(Cn1c2c(c3cc(O)ccc31)CCc1ccc(O)cc1-2)N(C)C (stereo not given)", "55 µM"),
    ("COc1ccc(-c2nc(Nc3ccccc3)sc2Cc2sc(Nc3ccccc3)nc2-c2ccc(OC)cc2)cc1", "> 100 µM"),
    ("Cc1ccc2nc(NS(=O)(=O)c3cc(C)c(Cl)cc3S)[nH]c2c1", "> 100 µM"),
    ("CCOC(=O)c1c(NC(=O)c2ccc(Cl)cc2)sc2c(CN(C)C)c(O)ccc12", "7.33 µM"),
    ("OCC(O)C(O)C(O)c1nn(-c2ccc(F)cc2)c2nc3cc(Cl)c(Cl)cc3nc12 (stereo not given)", "> 100 µM"),
    ("COc1ccc(-c2cc(/C=C/C(=O)c3ccc(N)cc3)[nH]n2)cc1", "5.41 µM"),
    ("C1CCCN(NC2=NCCO2)CC1", "> 100 µM"),
    ("COc1cc(/C=C2\\SC(N3CCCCC3)=NC2=O)ccc1OCCCCCCOc1ccc(/C=C2\\SC(N3CCCCC3)=NC2=O)cc1OC", "48.3 µM"),
    ("O=C(/C=C/c1ccccc1O)c1ccccc1Cl", "> 100 µM"),
    ("Cc1ccc(S(=O)(=O)N/N=C2/CCC3(O)CC2(C)CCC2[C@H]3CC2(C)C)cc1 (stereo not given in full)", "> 100 µM"),
    ("Cc1ccc(S(=O)(=O)N2CCNCCN(S(=O)(=O)c3ccc(C)cc3)CCNCC2)cc1", "> 100 µM"),
    ("CN1CC[C@H](c2c(O)cc(O)c3c(=O)cc(-c4ccccc4Cl)oc23)[C@H](O)C1", "> 10 µM"),
    ("CC(O)[C@H](NC(=O)N[C@@H](CC(N)=O)c1nc(N2CCNCC2)no1)C(=O)O (stereo not given in full)", "> 100 µM"),
    ("O=[N+]([O-])c1cccc(Nc2nc(Cl)nc(Cl)n2)c1", "> 100 µM"),
    ("CC(=O)OCC1OC(n2c3c(cc(C#N)c2=S)CCCC3)C(OC(C)=O)C(OC(C)=O)C1OC(C)=O (stereo not given)", "> 100 µM"),
    ("CCCc1nc2c(n1CC)C(=O)c1ccccc1C2=O", "> 100 µM"),
    ("C1CSCC2(COC2)CSCCSCC2(COC2)CS1", "> 100 µM"),
    ("COC(=O)C(=O)C(C(=O)C(=O)Nc1ccc(C)cc1C)c1nc2ccc(Cl)cc2[nH]c1=O (stereo not given)", "> 100 µM"),
    ("COc1ccc(/C=N/NS(=O)(=O)c2ccccc2)cc1", "> 100 µM"),
    ("O=C1c2c(Br)sc(Br)c2[C@@H](O)[C@H]1O", "12.3 µM"),
    ("O=C1Cc2cn[nH]c2-c2ccccc2N1", "32.4 µM"),
    ("CC(=O)c1ccc(Nc2c3ccccc3nc3occc23)cc1", "> 100 µM"),
    ("CC(Oc1ccccc1Cl)C(=O)NN1C(=O)CC(=O)N(c2ccc(Cl)cc2)C1=S (stereo not given)", "> 100 µM"),
]

###

# System: ACHN renal
# TEST DETAILS: NCI tumour cell line growth inhibition, 48 h

# MOLECULE, TGI
records = [
    ("Cc1cc(Cl)ccc1NC(=O)C1C(=O)N(c2ccc(Cl)cc2C)C(=O)/C1=N\\NC(N)=S (stereo unspecified)", "> 100 µM"),
    ("COc1ccc(C2=Nn3c(nnc3-n3nc(C)cc3C)SC2)cc1", "> 100 µM"),
    ("CC(O)[C@H](NC(=O)N[C@@H](CC(N)=O)c1nc(N2CCNCC2)no1)C(=O)O (stereo partly specified)", "> 100 µM"),
    ("NCCCN=c1ccc2c3c1c(O)c1c(O)ccc(=O)c1c3[nH]n2CCNCCO", "4.52 µM"),
    ("O=C1c2c(Br)sc(Br)c2[C@@H](O)[C@H]1O", "33.5 µM"),
    ("CN(N=O)c1nc2c(C(N)=O)ncn2s1", "> 100 µM"),
]
